Source of measurements: paper PMC2970562

Target: human 15-PGDH (Homo sapiens, UniProt P15428)
Construct: comprising residues 3–256 of the human HPGD gene (GenBank identifier: 1203982); His6 (GHHHHHH, behind the TEV site) (C, cleaved yes); made in house; host or cells: E. coli BL21(DE3)-R3
Sequence (P15428 3-256): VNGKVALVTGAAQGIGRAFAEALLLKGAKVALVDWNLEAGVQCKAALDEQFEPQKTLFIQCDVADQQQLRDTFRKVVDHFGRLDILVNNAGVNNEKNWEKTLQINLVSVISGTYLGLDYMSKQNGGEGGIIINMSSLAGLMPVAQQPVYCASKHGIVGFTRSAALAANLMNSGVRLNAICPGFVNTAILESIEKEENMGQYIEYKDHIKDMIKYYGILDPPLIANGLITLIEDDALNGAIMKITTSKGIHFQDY
Experiment: Differential scanning fluorimetry (DSF), thermal stabilization
Format: binding
Conditions: without cofactor; 1 µM protein, compound 50 or 250 µM; N/A = no unfolding transition observed in DSF
measuredParameter: ∆Tm [°C] apo

Check out these entries, answers already filled in.
compound	∆Tm [°C] apo
C=CCN1C(=O)[C@@H](CC(=O)Nc2cc(C)ccc2C)SC1=Nc1cc(C)cc(C)c1	-1.4 °C
CCCCCCCCNCCOCCOCCOCCOCCNCCCCCCCC	-0.1 °C
O=C(c1ccc(N2C(=O)C3CC=C(Cl)CC3C2=O)cc1)N1CCCCC1 (stereo not shown)	-0.1 °C

# evaluate next
Give human 15-PGDH (Homo sapiens, UniProt P15428) ∆Tm [°C] apo for the following compound: CC(C)(C)OC(=O)NC(Cc1csc2ccccc12)C(=O)CCc1cc(C(F)(F)F)cc(C(F)(F)F)c1 (stereo not shown) -1.9 °C

* * *

Biological target: human 15-PGDH (Homo sapiens, UniProt P15428)
Construct: comprising residues 3–256 of the human HPGD gene (GenBank identifier: 1203982); His6 (GHHHHHH, behind the TEV site) (C, cleaved yes); made in house; host or cells: E. coli BL21(DE3)-R3
Assay: Differential scanning fluorimetry (DSF), thermal stabilization
Type: binding
Conditions: without cofactor; 1 µM protein, compound 50 or 250 µM; N/A = no unfolding transition observed in DSF
Reported ∆Tm [°C] apo is given for each of the following compounds.

Reference set (8 entries):
compound	measurementTarget	∆Tm [°C] apo
COc1ccc(C2C(C(=O)O)c3ccccc3C(=O)N2Cc2ccccc2)cc1 (stereo not drawn)	human 15-PGDH (Homo sapiens, UniProt P15428)	-0.1 °C
COc1ccc(NS(=O)(=O)Cc2ccccc2Cl)cc1	human 15-PGDH (Homo sapiens, UniProt P15428)	-0.5 °C
Cc1cc(NC(=O)COC(=O)c2cccc(S(=O)(=O)NC(C)(C)C)c2)no1	human 15-PGDH (Homo sapiens, UniProt P15428)	-1.8 °C
O=C(c1ccc(COc2ccccc2Br)cc1)N1CCCCC1	human 15-PGDH (Homo sapiens, UniProt P15428)	-0.1 °C
N#Cc1ccccc1CSc1nc2cc(Br)c[nH]c-2n1	human 15-PGDH (Homo sapiens, UniProt P15428)	-1.2 °C
COc1ccc(C(=O)OCC(=O)Nc2c(C)cccc2C)cc1S(=O)(=O)N(C)C	human 15-PGDH (Homo sapiens, UniProt P15428)	-0.3 °C
CN(C)C(=O)C(NCCc1c[nH]c2ccccc12)c1ccccc1 (stereo not drawn)	human 15-PGDH (Homo sapiens, UniProt P15428)	-0.1 °C
C=C(C(=O)OC)C1CCC2(C)C(OC(=O)C(Cc3ccc(O)cc3)OC(=O)C(O)C(C)C)CCC(O)(COC3OC(CO)C(O)C(O)C3O)C2C1O (stereo not drawn)	human 15-PGDH (Homo sapiens, UniProt P15428)	-0.6 °C

Look up and report measured ∆Tm [°C] apo for this entry: Cc1cc(-c2nnc3n2CCCCC3)c(C)n1-c1ccccc1 0.1 °C

* * *

Biological target: human 15-PGDH (Homo sapiens)
Construct: comprising residues 3–256 of the human HPGD gene (GenBank identifier: 1203982); His6 (GHHHHHH, behind the TEV site) (C, cleaved yes); made in house; host or cells: E. coli BL21(DE3)-R3
Test: qHTS and 24-point re-test: fluorescence assay of NAD+ reduction to NADH on PGE2 oxidation (PubChem AID 894)
Type: biochemical
Details: read-out: qHTS IC50
measuredParameter: IC50 (nM)
Kindly answer with a numeric value in nM, unit omitted.

Completed entries (count: 3):
molecule	measurementTarget	endpointValue
Cc1cccc(-n2cnc3cc(C(=O)N4CCCCC4)ccc32)c1 [Compound 13]	human 15-PGDH (Homo sapiens)	56
CC1CCN(C(=O)c2ccc(CSc3ccc(Cl)cc3)cc2)CC1 [Compound 5]	human 15-PGDH (Homo sapiens)	631
Cc1cc(-c2nnc3n2CCCCC3)c(C)n1-c1ccccc1 [Compound 72]	human 15-PGDH (Homo sapiens)	89

Pending molecule:
Assign IC50 to the following record: O=C(c1ccc(COc2ccccc2Br)cc1)N1CCCCC1 [Compound 7] 89
